Assignment: determine reported melting point for the given compounds.

So, "COc1ccnc(C(=O)N[C@H]2COC(=O)[C@H](Cc3ccccc3)[C@@H](OC(=O)C(C)C)[C@H](C)OC2=O)c1OCO[Si](C)(C)C" ? Its melting point was 50 to 52 °C

So, "CCOCOc1c(OC)ccnc1C(=O)N[C@H]1COC(=O)[C@H](Cc2ccccc2)[C@@H](OC(=O)C(C)C)[C@H](C)OC1=O" ? Its melting point was 60 to 62 °C

So, "COc1ccnc(C(=O)N[C@H]2COC(=O)[C@H](Cc3ccccc3)[C@@H](OC(=O)C(C)C)[C@H](C)OC2=O)c1OCOCc1ccccc1" ? Its melting point was 56 to 60 °C

So, "COCOc1c(OC)ccnc1C(=O)N[C@H]1COC(=O)[C@H](Cc2ccccc2)[C@@H](OC(=O)C(C)C)[C@H](C)OC1=O" ? Its melting point was 146 to 147 °C

So, "COc1ccnc(C(=O)N[C@H]2COC(=O)[C@H](Cc3ccccc3)[C@@H](OC(=O)C(C)C)[C@H](C)OC2=O)c1OCOCCC#N" ? Its melting point was 62 to 67 °C

So, "COc1ccnc(C(=O)N[C@H]2COC(=O)[C@H](Cc3ccccc3)[C@@H](OCC(C)C)[C@H](C)OC2=O)c1OCOC(C)=O" ? Its melting point was 130 to 131 °C

So, "CCOCCC(=O)OCOc1c(OC)ccnc1C(=O)N[C@H]1COC(=O)[C@H](Cc2ccccc2)[C@@H](OC(=O)C(C)C)[C@H](C)OC1=O" ? Its melting point was 50 to 55 °C

So, "COCCC(=O)OCOc1c(OC)ccnc1C(=O)N[C@H]1COC(=O)[C@H](Cc2ccccc2)[C@@H](OC(=O)C(C)C)[C@H](C)OC1=O" ? Its melting point was 84 to 86 °C

So, "COc1ccnc(C(=O)N[C@H]2COC(=O)[C@H](Cc3ccccc3)[C@@H](OC(=O)C(C)C)[C@H](C)OC2=O)c1OCSc1ccccc1" ? Its melting point was 133 to 135 °C

So, "CCOCC(=O)OCOc1c(OC)ccnc1C(=O)N[C@H]1COC(=O)[C@H](Cc2ccccc2)[C@@H](OC(=O)C(C)C)[C@H](C)OC1=O" ? Its melting point was 79 to 81 °C

So, "COc1ccnc(C(=O)N[C@H]2COC(=O)[C@H](Cc3ccccc3)[C@@H](OC(=O)C(C)C)[C@H](C)OC2=O)c1OCOC(=O)C1CCCC1" ? Its melting point was 128 to 129 °C

So, "COc1ccnc(C(=O)N[C@H]2COC(=O)[C@H](Cc3ccccc3)[C@@H](OC(=O)C(C)C)[C@H](C)OC2=O)c1OCOC(=O)c1ccccc1" ? Its melting point was 65 to 70 °C

So, "C=C(C)CO[C@H]1[C@H](C)OC(=O)[C@@H](NC(=O)c2nccc(OC)c2OCOC(C)=O)COC(=O)[C@@H]1Cc1ccccc1" ? Its melting point was 102 to 104 °C

====

- Test system: Ustilago maydis (USTIMA)
- PROTOCOL TEXT: microbe, parasite or virus in culture
- Type: cell-based
- EXPERIMENTAL PARAMETERS: Mycosarcoma maydis, read-out: T12 USTIMA in vitro Growth Inhibition
Assignment: determine reported inhibition at 25 ppm for the given compounds.

So, "CCC(=O)OCOc1c(OC)ccnc1C(=O)N[C@H]1COC(=O)[C@H](Cc2ccccc2)[C@@H](OC(=O)C(C)C)[C@H](C)OC1=O" ? Its inhibition at 25 ppm was < 80%

So, COc1ccnc(C(=O)N[C@H]2COC(=O)[C@H](Cc3ccccc3)[C@@H](OC(=O)C(C)C)[C@H](C)OC2=O)c1OCOC(=O)C(C)OC (stereo partly drawn) ? Its inhibition at 25 ppm was > 80%

So, "COc1ccnc(C(=O)N[C@H]2COC(=O)[C@H](Cc3ccccc3)[C@@H](OC(=O)C(C)C)[C@H](C)OC2=O)c1OCOC(=O)COC(C)C" ? Its inhibition at 25 ppm was < 80%

So, CCCOC(C)C(=O)OCOc1c(OC)ccnc1C(=O)N[C@H]1COC(=O)[C@H](Cc2ccccc2)[C@@H](OC(=O)C(C)C)[C@H](C)OC1=O (stereo partly drawn) ? Its inhibition at 25 ppm was > 80%

So, "CCOCOc1c(OC)ccnc1C(=O)N[C@H]1COC(=O)[C@H](Cc2ccccc2)[C@@H](OC(=O)C(C)C)[C@H](C)OC1=O" ? Its inhibition at 25 ppm was < 80%

So, "COc1ccnc(C(=O)N[C@H]2COC(=O)[C@H](Cc3ccccc3)[C@@H](OC(=O)C(C)C)[C@H](C)OC2=O)c1OCOCCC#N" ? Its inhibition at 25 ppm was > 80%

So, COCC(C)OCOc1c(OC)ccnc1C(=O)N[C@H]1COC(=O)[C@H](Cc2ccccc2)[C@@H](OC(=O)C(C)C)[C@H](C)OC1=O (stereo partly drawn) ? Its inhibition at 25 ppm was > 80%

So, "COc1ccnc(C(=O)N[C@H]2COC(=O)[C@H](Cc3ccccc3)[C@@H](OC(=O)C(C)C)[C@H](C)OC2=O)c1OCOC(=O)C(C)C" ? Its inhibition at 25 ppm was > 80%

So, "COc1ccnc(C(=O)N[C@H]2COC(=O)[C@H](Cc3ccccc3)[C@@H](OC(=O)C(C)C)[C@H](C)OC2=O)c1OCOC(=O)COCC(F)(F)F" ? Its inhibition at 25 ppm was > 80%

====

- Tested on: Puccinia recondita (PUCCRT)
- PROTOCOL TEXT: Brown Rust of Wheat, whole plant 24 Hour Protectant (T5)
- EXPERIMENTAL PARAMETERS: wheat (cultivar Yuma), sprayed at 100 ppm, inoculated after 24 hours, read-out: T5 PUCCRT in vivo 1 Day Protectant, control of fungal infection
READOUT KIND: pest or weed control at 100 ppm

So, "COc1ccnc(C(=O)N[C@H]2COC(=O)[C@H](Cc3ccccc3)[C@@H](OC(=O)C(C)C)[C@H](C)OC2=O)c1OCOCCCl" ? Its pest or weed control at 100 ppm was 75 to 100%

So, "COCC(=O)OCOc1c(OC)ccnc1C(=O)N[C@H]1COC(=O)[C@H](Cc2ccccc2)[C@@H](OC(=O)C(C)C)[C@H](C)OC1=O" ? Its pest or weed control at 100 ppm was 75 to 100%

So, "COc1ccnc(C(=O)N[C@H]2COC(=O)[C@H](Cc3ccccc3)[C@@H](OC(=O)C(C)C)[C@H](C)OC2=O)c1OCOC(=O)COCC(C)C" ? Its pest or weed control at 100 ppm was 75 to 100%

====

Assignment: determine reported pest or weed control at 100 ppm for the given compounds.
- Tested on: Puccinia recondita (PUCCRT)
- PROTOCOL TEXT: Brown Rust of Wheat, whole plant 24 Hour Protectant (T5)
- EXPERIMENTAL PARAMETERS: wheat (cultivar Yuma), sprayed at 100 ppm, inoculated after 24 hours, read-out: T5 PUCCRT in vivo 1 Day Protectant, control of fungal infection

So, "COc1ccnc(C(=O)N[C@H]2COC(=O)[C@H](Cc3ccccc3)[C@@H](OCC(C)C)[C@H](C)OC2=O)c1OCOC(C)=O" ? Its pest or weed control at 100 ppm was 75 to 100%

So, "C=CCO[C@H]1[C@H](C)OC(=O)[C@@H](NC(=O)c2nccc(OC)c2OCOC(C)=O)COC(=O)[C@@H]1Cc1ccccc1" ? Its pest or weed control at 100 ppm was 75 to 100%

So, "CCCO[C@H]1[C@H](C)OC(=O)[C@@H](NC(=O)c2nccc(OC)c2OCOC(=O)CCOC)COC(=O)[C@@H]1Cc1ccccc1" ? Its pest or weed control at 100 ppm was 75 to 100%

====

- System: Puccinia recondita (PUCCRT)
- PROTOCOL TEXT: Brown Rust of Wheat, whole plant 24 Hour Protectant (T5)
- EXPERIMENTAL PARAMETERS: wheat (cultivar Yuma), sprayed at 100 ppm, inoculated after 24 hours, read-out: T5 PUCCRT in vivo 1 Day Protectant, control of fungal infection
Assignment: determine reported pest or weed control at 100 ppm for the given compounds.

Item: "COc1ccnc(C(=O)N[C@H]2COC(=O)[C@H](Cc3ccccc3)[C@@H](OC(=O)C(C)C)[C@H](C)OC2=O)c1OCOC(=O)C1CC1" | System: Puccinia recondita (PUCCRT) | pest or weed control at 100 ppm: 75 to 100%

Item: "COc1ccnc(C(=O)N[C@H]2COC(=O)[C@H](Cc3ccccc3)[C@@H](OC(=O)C(C)C)[C@H](C)OC2=O)c1OCOC(=O)COC1CCCC1" | System: Puccinia recondita (PUCCRT) | pest or weed control at 100 ppm: 75 to 100%

Item: "CCCOCOc1c(OC)ccnc1C(=O)N[C@H]1COC(=O)[C@H](Cc2ccccc2)[C@@H](OC(=O)C(C)C)[C@H](C)OC1=O" | System: Puccinia recondita (PUCCRT) | pest or weed control at 100 ppm: 75 to 100%

Item: COc1ccnc(C(=O)N[C@H]2COC(=O)[C@H](Cc3ccccc3)[C@@H](OC(=O)C(C)C)[C@H](C)OC2=O)c1OC(C)OC(C)=O (stereo partly drawn) | System: Puccinia recondita (PUCCRT) | pest or weed control at 100 ppm: 75 to 100%

Item: "COc1ccnc(C(=O)N[C@H]2COC(=O)[C@H](Cc3ccccc3)[C@@H](OC(=O)C(C)C)[C@H](C)OC2=O)c1OCOC(=O)c1ccccc1" | System: Puccinia recondita (PUCCRT) | pest or weed control at 100 ppm: 75 to 100%

Item: "COCCOCC(=O)OCOc1c(OC)ccnc1C(=O)N[C@H]1COC(=O)[C@H](Cc2ccccc2)[C@@H](OCSC)[C@H](C)OC1=O" | System: Puccinia recondita (PUCCRT) | pest or weed control at 100 ppm: 75 to 100%

Item: COc1ccnc(C(=O)N[C@H]2COC(=O)[C@H](Cc3ccccc3)[C@@H](OC(=O)C(C)C)[C@H](C)OC2=O)c1OCOC(=O)C1CCCO1 (stereo partly drawn) | System: Puccinia recondita (PUCCRT) | pest or weed control at 100 ppm: 75 to 100%

Item: CCOC(C)C(=O)OCOc1c(OC)ccnc1C(=O)N[C@H]1COC(=O)[C@H](Cc2ccccc2)[C@@H](OC(=O)C(C)C)[C@H](C)OC1=O (stereo partly drawn) | System: Puccinia recondita (PUCCRT) | pest or weed control at 100 ppm: 75 to 100%

Item: "COc1ccnc(C(=O)N[C@H]2COC(=O)[C@H](Cc3ccccc3)[C@@H](OCC(C)C)[C@H](C)OC2=O)c1OCOC(=O)C1CCCC1" | System: Puccinia recondita (PUCCRT) | pest or weed control at 100 ppm: 75 to 100%

Item: "COCCC(=O)OCOc1c(OC)ccnc1C(=O)N[C@H]1COC(=O)[C@H](Cc2ccccc2)[C@@H](OC(=O)C(C)C)[C@H](C)OC1=O" | System: Puccinia recondita (PUCCRT) | pest or weed control at 100 ppm: 75 to 100%

Item: "COc1ccnc(C(=O)N[C@H]2COC(=O)[C@H](Cc3ccccc3)[C@@H](OC(=O)C(C)C)[C@H](C)OC2=O)c1OCOC(=O)COCC(F)(F)F" | System: Puccinia recondita (PUCCRT) | pest or weed control at 100 ppm: 75 to 100%

Item: "CCOCC(=O)OCOc1c(OC)ccnc1C(=O)N[C@H]1COC(=O)[C@H](Cc2ccccc2)[C@@H](OCSC)[C@H](C)OC1=O" | System: Puccinia recondita (PUCCRT) | pest or weed control at 100 ppm: 75 to 100%
